# System: HEK-293T
# Protocol Summary: Multiplex assay against HEK293T
# Type: toxicity, cell-based
# Particulars: human, 24 h, 1 µM, compound concentration 1 uM
Non-standard residues stand in square brackets, D forms with d. Residues, ends and D or L forms follow the SMILES beside them.
Measurement Type: Population Pyknosed Nuclei (%)

CC(C)C[C@@H]1NC(=O)[C@@H](C(C)C)NC(=O)[C@@H]2CCCN2C(=O)[C@@H](CC(=O)O)NC(=O)[C@@H](Cc2c[nH]c3ccccc23)NC1=O [BQ-123] (cyclo(L[dW][dD]P[dV])): 9
C[C@H]1[C@H]2CC[C@H]3[C@@H]4CC=C5C[C@@H](N(C)C)CC[C@]5(C)[C@H]4CC[C@]23CN1C [CONESSINE]: 10
Cl.Clc1ccc2nsnc2c1NC1=NCCN1 [TIZANIDINE HYDROCHLORIDE]: 8
CCC(=O)OCC(=O)[C@@]1(OC(=O)CC)[C@@H](C)C[C@H]2[C@@H]3CCC4=CC(=O)C=C[C@]4(C)[C@@]3(Cl)[C@@H](O)C[C@@]21C [BECLOMETHASONE DIPROPIONATE]: 11
CCNC1(C(N)=O)CCN(c2ncnc3c2nc(-c2ccccc2Cl)n3-c2ccc(Cl)cc2)CC1 [OTENABANT]: 11
C[C@H](N)COC(=O)[C@@H](CCCCN)NC(=O)Cc1c(-c2ccc3ccccc3c2)[nH]c2c1ccc1ccccc12: 12
Cc1ccc(F)cc1C(=O)Nc1ccc(C(=O)N2Cc3cccn3Cc3ccccc32)c(Cl)c1 [LIXIVAPTAN]: 13

---

Reported Population Normal (%) by item:
# Test system: U2OS
# Protocol Summary: Multiplex assay against U2OS
# Type: toxicity, cell-based
# Particulars: human, 12 h, 1 µM, compound concentration 1 uM
Measurement Type: Population Normal (%)

CNc1nc(NCc2ncccn2)c2c(-c3ccc4ncccc4c3)c[nH]c2n1: 100
CCOc1ccccc1C(=O)NCC1(N2CCN(CC)CC2)CCCCC1: 100
Cl.c1ccc2c(c1)CCC[C@H]2Nc1nc2ccccc2[nH]1: 100
COc1cc(C(=O)N(CCCc2ccccc2)Cc2ccc(CC(=O)O)cc2)cc(OC)c1C: 95
CN(C)Cc1cccc(NC(=C2C(=O)Nc3cc(C(N)=O)ccc32)c2ccccc2)c1: 100
FC(F)(F)c1ccccc1-c1cc(C(F)(F)F)c2[nH]c(C3=NOC4(CCCCC4)C3)nc2c1: 100
COCCNc1nc2ccc(C#CC3(O)CCCCC3)cc2n1-c1ccnc(N)n1: 100
Clc1ccccc1C(c1ccccc1)(c1ccccc1)n1cccn1: 100
CC(C)CC(=O)Nc1cncc(-c2ccc3[nH]nc(-c4nc5c(-c6cccc(F)c6)cncc5[nH]4)c3c2)c1 [LORECIVIVINT]: 100
Cl.Clc1cc2cc(c1)-c1cnn3ccc(nc13)NCCOCCO2: 100
CN(C)CCOc1ccc(/C(=C(/CCCO)c2ccccc2)c2ccc(O)cc2)cc1: 100
O=C(Nc1ccccc1Br)N[C@@H]1CCN(c2ccc(C(F)(F)F)cn2)C1 [SB-705498]: 100
CC(C)C[C@H](NC(=O)c1cc2ccccc2s1)C(=O)N1CCN(C(=O)[C@H](CO)NS(=O)(=O)c2ccc(Cl)cc2Cl)CC1: 100
COCCNc1cc(NC(=O)N2CCCc3cc(CN4CCOCC4=O)c(C=O)nc32)ncc1C#N: 100
Cc1noc(C)c1-c1cnc2c(-c3ccc(C(=O)O)cc3)cn([C@@H](C)c3ccccn3)c2c1 [PLX-51107]: 100
COc1ccc(-n2c(C)c([N+](=O)[O-])c3ccc(O)cc32)cc1: 100
O=C1c2c(Br)c(Br)c(Br)c(Br)c2C(=O)N1c1ncc[nH]1: 100
CN(C)c1ccnc2sc3c(=O)n(N4CCCCCC4)cnc3c12: 98
Cc1ccc(F)cc1C(=O)Nc1ccc(C(=O)N2Cc3cccn3Cc3ccccc32)c(Cl)c1 [LIXIVAPTAN]: 96

Data provenance: ChEMBL document CHEMBL5724801
